binding score listing for selected binders.
Biological target: FGFR4 ectodomain (Homo sapiens, UniProt P22455)
Test: AVEXIS normalised luminescence
quantityKind: binding score

INSERT INTO results (binder, quantitykind, testvalue) VALUES
  ('12 (protein, bait human Fc-tagged dimer) SDTFRVFEDFDVRRKNKIWCCNLNHEKSYFHNKAINTAYKNRVLKESILLNLDLDMKKYKDNIITRKKTPENIYKEIYENNYEMKYDEDIPNNMAEEKRDEKEVIEHLEIDEKNGKQYKSDINKPVSLSHLKQYKNIYVNNNNKINKKKSIDKHLPSYNLERKNNKYLNFLLVDNRNEAYTFMVPMKFYINHEMYNIADEEYNKLMEDNSVDVYLNNILVEYKYENFEIKEGEVDGEVEGEGEVEGEVEGEVKGKVVEGIENNMNEEEKYNKDNKDKENQINSNGQDENTEFQENDNNDAVIMKYT', 'binding score', 0.891),
  ('58 (protein, bait human Fc-tagged dimer) IQLHSVNYAPLNYIEIGDTLSNKVGELWHSHLNSFIDIVSTKVVNKLEDDLSNGNNLEKFMILLEDDADIFDASAYEGKNLALIQTEFIRKLKDKFKNSKFGQKLKKLGSKAKEKLLSLYQKHKGKLRHFFSILLKSLVIPIAVQFIRKNLNKWKQRTLEATQKLDEQSKNIAQPIINRLYNSFEDKIEEYSQENKINVEDELNALGQLDKDKQDIQKLEEQEKALLQ', 'binding score', 0.979);
